Recorded loss of binding vs wild type for the following binders
Assayed Target: T1, hiR2-FL-C508A-T7 (human, UniProt Q6PJF5 1-856)
T1 construct: reduced surface expression reported
T1 sequence: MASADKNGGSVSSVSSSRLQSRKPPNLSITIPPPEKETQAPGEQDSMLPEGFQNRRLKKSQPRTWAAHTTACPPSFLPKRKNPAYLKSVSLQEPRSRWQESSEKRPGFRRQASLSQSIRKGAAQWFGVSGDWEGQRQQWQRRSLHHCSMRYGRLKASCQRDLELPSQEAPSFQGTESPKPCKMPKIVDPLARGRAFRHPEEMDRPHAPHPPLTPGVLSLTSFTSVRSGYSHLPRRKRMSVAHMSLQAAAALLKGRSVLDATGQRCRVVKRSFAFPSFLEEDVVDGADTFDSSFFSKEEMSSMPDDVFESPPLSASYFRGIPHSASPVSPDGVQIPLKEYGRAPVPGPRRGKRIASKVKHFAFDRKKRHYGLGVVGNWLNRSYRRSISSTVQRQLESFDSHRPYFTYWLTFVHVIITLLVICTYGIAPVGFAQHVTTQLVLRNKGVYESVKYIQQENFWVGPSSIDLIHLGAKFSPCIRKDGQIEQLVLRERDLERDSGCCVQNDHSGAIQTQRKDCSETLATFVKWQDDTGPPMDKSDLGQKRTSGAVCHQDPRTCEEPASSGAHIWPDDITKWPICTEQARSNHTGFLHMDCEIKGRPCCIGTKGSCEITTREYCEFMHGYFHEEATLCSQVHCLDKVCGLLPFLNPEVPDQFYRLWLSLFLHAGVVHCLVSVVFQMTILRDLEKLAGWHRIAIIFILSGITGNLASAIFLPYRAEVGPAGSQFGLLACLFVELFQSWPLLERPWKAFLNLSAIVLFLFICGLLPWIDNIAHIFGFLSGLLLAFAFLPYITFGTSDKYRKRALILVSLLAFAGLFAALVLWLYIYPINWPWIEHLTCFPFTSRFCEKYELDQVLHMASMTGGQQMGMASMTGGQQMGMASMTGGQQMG
Protocol: FACS on MEF-DKO cells expressing the variant, 3 µg/ml antibody

[[record]]
binder = "antibody 5 (antibody, V domains shown, mouse IgG, kappa light chain; also called clone #5; purified antibody 5) VH: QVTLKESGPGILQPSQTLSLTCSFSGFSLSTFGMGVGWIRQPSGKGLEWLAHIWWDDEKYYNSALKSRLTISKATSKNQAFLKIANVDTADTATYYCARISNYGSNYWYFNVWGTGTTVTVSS VL: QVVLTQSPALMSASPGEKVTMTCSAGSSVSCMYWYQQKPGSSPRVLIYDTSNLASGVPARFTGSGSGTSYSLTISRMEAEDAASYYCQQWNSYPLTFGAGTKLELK"
result = "≥ 30%"

[[record]]
binder = "antibody 34 (antibody, V domains shown, mouse IgG, kappa light chain; also called clone #34; purified antibody 34) VH: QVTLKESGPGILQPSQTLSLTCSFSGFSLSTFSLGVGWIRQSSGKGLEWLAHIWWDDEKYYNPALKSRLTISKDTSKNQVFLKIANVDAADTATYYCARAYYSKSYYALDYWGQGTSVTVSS VL: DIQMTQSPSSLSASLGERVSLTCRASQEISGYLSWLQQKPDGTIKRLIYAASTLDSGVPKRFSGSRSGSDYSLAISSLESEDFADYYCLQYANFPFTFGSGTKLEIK"
result = "≥ 30%"


Lab note: next binder to report on.
// loss of binding vs wild type lookup, binder = antibody 43 (antibody, V domains shown, mouse IgG, kappa light chain; also called clone #43; purified antibody 43) VH: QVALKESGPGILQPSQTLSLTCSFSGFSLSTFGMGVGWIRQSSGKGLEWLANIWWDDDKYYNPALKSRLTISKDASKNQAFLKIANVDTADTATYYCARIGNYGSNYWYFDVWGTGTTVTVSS VL: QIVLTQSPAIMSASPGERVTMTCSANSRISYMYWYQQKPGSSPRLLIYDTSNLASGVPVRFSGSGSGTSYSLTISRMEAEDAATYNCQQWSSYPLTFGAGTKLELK , result: ≥ 30%
